Test: Pharmacokinetic evaluation in rats after intravenous or intragastric administration
Format: in vivo, SD rats
Settings: SD, rat, plasma, intravenous injection, 1 mg/kg
Overview of reported clearance across a group of compounds:
metric: clearance (mL/min/kg)

- compound: "CCn1c(=O)c2c(nc(/C=C/c3ccc(OC4CCS(=O)(=O)CC4)c(F)c3)n2C)n(CC)c1=O [Example 2]"
  assay.result: 3.94
- compound: "CCn1c(=O)c2c(nc(/C=C/c3ccc(OC4CCS(=O)(=O)CC4)cc3)n2C)n(CC)c1=O [Example 1]"
  assay.result: 3.82

====

Biological target: UniProt P29274
Sequence (P29274 whole entry): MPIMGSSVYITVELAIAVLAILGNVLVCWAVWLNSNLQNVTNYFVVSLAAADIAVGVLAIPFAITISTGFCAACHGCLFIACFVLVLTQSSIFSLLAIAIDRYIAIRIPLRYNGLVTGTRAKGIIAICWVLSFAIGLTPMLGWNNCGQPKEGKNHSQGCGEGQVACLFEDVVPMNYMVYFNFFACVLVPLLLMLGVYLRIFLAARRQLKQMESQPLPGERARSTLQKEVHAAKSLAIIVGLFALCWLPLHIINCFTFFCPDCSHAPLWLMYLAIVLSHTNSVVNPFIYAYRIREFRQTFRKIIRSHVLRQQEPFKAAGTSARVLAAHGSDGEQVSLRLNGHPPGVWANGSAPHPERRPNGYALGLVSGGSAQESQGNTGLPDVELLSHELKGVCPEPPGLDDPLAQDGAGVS
Test: Antagonizing effect on human adenosine A2A receptor (cAMP, TR-FRET, NECA-stimulated HEK-293 cells)
Settings: inhibition of cAMP produced by NECA (3 nM), HEK-293 cells expressing human recombinant A2A receptor
pIC50: −log10 of the molar value.
Overview of reported pIC50 across a group of compounds:

- compound: "CCn1c(=O)c2c(nc(/C=C/c3ccc(OC4CCS(=O)(=O)CC4)nc3)n2C)n(CC)c1=O [Example 4]"
  pIC50: 5.52
- compound: "CCn1c(=O)c2c(nc(/C=C/c3ccc(OC4CCS(=O)(=O)CC4)cc3)n2C)n(CC)c1=O [Example 1]"
  pIC50: 5.60
- compound: "CCn1c(=O)c2c(nc(/C=C/c3ccc(OC4CCS(=O)(=O)CC4)c(F)c3)n2C)n(CC)c1=O [Example 2]"
  pIC50: 5.49
- compound: "CCn1c(=O)c2c(nc(/C=C/c3ccc(OC4CCC(F)(F)CC4)cc3)n2C)n(CC)c1=O [Example 6]"
  pIC50: 5.83

====

Experiment: Pharmacokinetic evaluation in rats after intravenous or intragastric administration
Type: in vivo, SD rats
Conditions: SD, rat, plasma, po, intragastric administration, 5 mg/kg
Overview of reported Cmax across a group of molecules:

- compound.structure: "CCn1c(=O)c2c(nc(/C=C/c3ccc(OC4CCS(=O)(=O)CC4)cc3)n2C)n(CC)c1=O"
  Cmax: "3660 ng/mL"
- compound.structure: "CCn1c(=O)c2c(nc(/C=C/c3ccc(OC4CCS(=O)(=O)CC4)c(F)c3)n2C)n(CC)c1=O"
  Cmax: "3110 ng/mL"
